system: urinary reflex; experiment: Supression of urinary reflex (bladder balloon, intraduodenal administration); type: in vivo, male Wister rats; settings: from ID50; Effect of Reference (Reference 1) defined as 1.00
# cutoff 3 applies to Ratio of Effect; >= gives label 1, < gives label 0

Compound: Cc1c(-c2ccccc2)oc2c(C(=O)O)cccc2c1=O [Reference 3, reference compound]
Subject of test: urinary reflex
Class name: label 0
--
Compound: Cc1c(-c2ccccc2)oc2c(C(=O)NCCN3CCCCC3)cccc2c1=O
Subject of test: urinary reflex
Class name: label 1
--
Compound: CCN(CC)CCOC(=O)c1cccc2c(=O)c(C)c(-c3ccccc3)oc12 [Reference 2, reference compound]
Subject of test: urinary reflex
Class name: label 0
--
Compound: CCN(CC)CCNC(=O)c1cccc2c(=O)c(C)c(-c3ccccc3)oc12
Subject of test: urinary reflex
Class name: label 1
--
Compound: Cc1c(-c2ccccc2)oc2c(C(=O)NCC(C)N3CCCCC3)cccc2c1=O (centres unmarked)
Subject of test: urinary reflex
Class name: label 1
--
Compound: CCN(CC)CCN(C)C(=O)c1cccc2c(=O)c(C)c(-c3ccccc3)oc12
Subject of test: urinary reflex
Class name: label 1
--
Compound: Cc1c(-c2ccccc2)oc2c(C(=O)OCCN3CCCCC3)cccc2c1=O [Reference 1, flavoxate, reference compound]
Subject of test: urinary reflex
Class name: label 0
